Test system: HCT-116
Assay: Cooperativity fold, ratio of IC50 for PRMT5 in human HCT-116 cells expressing wild-type MTAP assessed as decrease in SMDA level to IC50 for PRMT5 in human HCT-116 cells with MTAP KO assessed as decrease in SMDA level
Format: cell-based
Quantity name: Ratio IC50

INSERT INTO assay_data (compound, quantity_name, cmp, measured) VALUES
  ('Cn1c(CN2C(=O)c3cc(F)ccc3[C@]23CCN(Cc2ccc(F)cc2)C3=O)cc2nc(N)ccc21', 'Ratio IC50', '>', 5),
  ('O=C1c2cc(F)ccc2[C@]2(CCN(Cc3ccc(F)cc3)C2=O)N1Cc1cc2ccncc2[nH]1', 'Ratio IC50', '>', 5),
  ('COc1ccc2c(c1)C(=O)N(Cc1cnc(NC(=N)N)s1)C2C(=O)NCc1ccc(F)cc1 (stereo unspecified)', 'Ratio IC50', '=', 7.7),
  ('Nc1ccc2cc(CN3C(=O)c4cc(F)ccc4[C@]34CCN(Cc3ccc(F)cc3)C4=O)[nH]c2n1', 'Ratio IC50', '=', 31),
  ('Nc1ccc2ncc(CN3C(=O)c4cc(F)ccc4[C@]34CCN(Cc3ccc(F)cc3)C4=O)cc2n1', 'Ratio IC50', '=', 18),
  ('COc1cc(N)nc2cc(CN3C(=O)c4cc(F)ccc4[C@]34CCN(Cc3ccc(F)cc3)C4=O)[nH]c12', 'Ratio IC50', '=', 7.2);
